- PROTOCOL: MMV: Cytotoxicity against human fibroblasts (MRC-5) cells.
- STUDY CONDITIONS: MRC-5 cells (human fibroblasts)
OBSERVATION TYPE: IC50 (µM)

Nc1ccc(-c2nc3cc(Oc4ccc(Oc5ccc6[nH]c(-c7ccc(N)cc7)nc6c5)cc4)ccc3[nH]2)cc1    8
COc1ccc(C2c3ccc4ccccc4c3Oc3ncn(CCCn4ccnc4)c(=N)c32)cc1OC (stereo not given)    10.1

###

- Test system: Leishmania infantum
- PROTOCOL: MMV: Inhibition of Leishmania infantum (MHOM/MA/BE/67) in vitro.
- Assay type: functional, organism-based
OBSERVATION TYPE: IC50

COc1ccc(-n2ccnc2SCC(=O)Nc2cc(C)ccc2C)c(OC)c1    > 32 µM
Clc1cc(Br)ccc1-c1ccc(CNCC2CCNCC2)o1    1 µM
COc1ccc(OC)c(C2C3=C(CC(C)(C)CC3=O)N(c3ccc(Cl)c(Cl)c3)C3=C2C(=O)CC(C)(C)C3)c1    > 32 µM
COCCn1c(C)nc2ccccc2c1=O    > 32 µM
COCCNCC(O)Cn1c2ccc(Cl)cc2c2cc(Cl)ccc21 (configuration not stated)    2.97 µM
O=C(O)C1Cc2c([nH]c3ccccc23)C(c2ccc(Cl)cc2Cl)N1 (configuration not stated)    > 32 µM
CCCCNc1nc(NC(C)(C)C)nc(NC(C)(C)C)n1    2.97 µM
CCOc1c(Br)cc(C2C(C(=O)OC)=CN(C)C=C2C(=O)OC)cc1OC    > 32 µM
O=C(CCc1ccco1)NC1CCN(CC2(c3ccc(Cl)cc3)CCC2)CC1    19 µM
CCOc1ccc(CCNC(=O)c2cccs2)cc1OCC    > 32 µM
COc1cc(C(=O)ON=C(N)Cc2cccc3ccccc23)cc(OC)c1OC    > 32 µM
Oc1ccc(Br)cc1CN1CCN(Cc2ccc(Cl)cc2)CC1    > 32 µM

###

- Test system: Leishmania infantum
- PROTOCOL: MMV: Inhibition of Leishmania infantum (MHOM/MA/BE/67) in vitro.
- Format: functional, organism-based
pIC50: −log10 of the molar value.
Rule: pIC50 of 5 or more gives Condition met; anything lower gives Condition not met.

CCOC(=O)c1c(NC(=O)c2ccccc2)sc2c(O)c(CN(CC)CC)ccc12    Condition not met
Cn1c(=O)n(C)c2cc(CNCCNc3ccnc4cc(Cl)ccc34)ccc21    Condition not met
CC(C)(C)CC(C)(C)NCC(O)COc1ccc2c(c1)CCC2 (stereo not given)    Condition met
CCOC(=O)c1c(C)n(-c2ccc(Cl)cc2)c2ccc(OC(=O)C=Cc3ccccc3)cc12    Condition not met
CCCCCCn1c(=N)n(CC(O)COc2cccc(C)c2)c2ccccc21 (stereo not given)    Condition met
COC(=O)c1ccc(C2C3=C(O)CC(c4ccc(F)cc4)CC3=Nc3ccccc3N2C(=O)c2ccccc2)cc1 (stereo not given)    Condition met
O=C(Nc1ccc(F)c(Cl)c1)Nc1ccc(Cl)c(Cl)c1    Condition not met
O=C(NC1CCCCC1)C(c1cccs1)N(CCc1ccccc1)C(=O)c1ccco1 (stereo not given)    Condition not met
Clc1ccc2c(N3CCCC3)ccnc2c1    Condition not met

###

pIC50: recorded values
- PROTOCOL: MMV: Cytotoxicity against human fibroblasts (MRC-5) cells.
- STUDY CONDITIONS: MRC-5 cells (human fibroblasts)
pIC50: −log10 of the molar value.
OBSERVATION TYPE: pIC50

Cc1ccc(-c2cc3c(SCC(=O)Nc4cc(C(F)(F)F)ccc4Cl)nccn3n2)cc1    < 4.49
C=C(C)CCC(C)N1CCC(N2CCC(C(=O)NCCc3ccccc3)CC2)CC1 (stereo unspecified)    4.72
COc1ccc(-c2nc(N3CCN(C(=O)C4CCCCC4)CC3)c3c4c(sc3n2)CCCC4)cc1    < 4.49
COc1ccccc1C(=O)ON=C(N)Cc1cccc2ccccc12    4.86
Cc1cc(Nc2ccc(Cl)cc2)n2nc(C(F)(F)F)nc2n1    < 4.49
FC(F)(F)c1cccc(Nc2nc3ccccc3nc2Nc2cccc(C(F)(F)F)c2)c1    5.03
N=c1c2ccccc2nnn1-c1cccc(C(F)(F)F)c1    < 4.49
COc1ccc(-c2nonc2NC(=O)c2cccc(Cl)c2)cc1OC    < 4.49
O=C(NCc1ccco1)C1CCN(S(=O)(=O)c2ccc(Cl)cc2)CC1    < 4.49
Cc1ccccc1OCCSc1nc2ccc(NC(=O)c3cccs3)cc2s1    < 4.49
COc1cccc(NC(=O)Cn2c(C)c(C#N)c3ccccc32)c1    < 4.49
